tested system: Mitogen-activated protein kinase kinase kinase 10 (Homo sapiens, UniProt Q02779)
Sequence (Q02779 whole entry): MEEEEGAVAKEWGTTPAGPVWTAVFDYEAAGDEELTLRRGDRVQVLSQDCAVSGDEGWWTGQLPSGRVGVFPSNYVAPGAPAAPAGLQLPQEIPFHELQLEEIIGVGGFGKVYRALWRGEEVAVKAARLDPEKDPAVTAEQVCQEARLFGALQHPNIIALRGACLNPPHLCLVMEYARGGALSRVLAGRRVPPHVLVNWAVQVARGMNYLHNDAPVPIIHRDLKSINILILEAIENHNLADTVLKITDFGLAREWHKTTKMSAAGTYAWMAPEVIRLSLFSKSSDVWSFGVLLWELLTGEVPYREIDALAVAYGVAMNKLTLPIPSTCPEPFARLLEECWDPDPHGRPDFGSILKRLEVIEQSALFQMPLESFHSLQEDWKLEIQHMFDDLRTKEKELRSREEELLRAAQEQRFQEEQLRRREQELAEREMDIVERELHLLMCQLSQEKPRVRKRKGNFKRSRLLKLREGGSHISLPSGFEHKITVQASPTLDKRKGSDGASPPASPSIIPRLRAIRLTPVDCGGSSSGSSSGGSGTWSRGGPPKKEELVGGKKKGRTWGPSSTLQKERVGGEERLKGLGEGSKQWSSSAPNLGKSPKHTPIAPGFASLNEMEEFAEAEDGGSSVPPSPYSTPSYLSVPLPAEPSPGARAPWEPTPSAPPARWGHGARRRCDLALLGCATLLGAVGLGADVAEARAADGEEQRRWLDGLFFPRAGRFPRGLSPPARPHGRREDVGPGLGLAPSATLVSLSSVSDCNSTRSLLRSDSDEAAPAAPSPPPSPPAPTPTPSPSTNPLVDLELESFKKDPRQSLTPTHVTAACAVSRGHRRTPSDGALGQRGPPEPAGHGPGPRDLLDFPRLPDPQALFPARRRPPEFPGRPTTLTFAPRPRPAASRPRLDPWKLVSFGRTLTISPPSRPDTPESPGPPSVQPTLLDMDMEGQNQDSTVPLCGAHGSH
protocol text: Mixed-Lineage Kinase Assays
readout name: pIC50
In simple prose, pIC50 is minus the logarithm base ten of a concentration in moles per litre.

INPUT: Look at this molecule and give its reported pIC50. COC(=O)[C@@]1(O)C[C@H]2O[C@]1(C)n1c3ccccc3c3c4c(c5c6ccccc6n2c5c31)C(=O)NC4
OUTPUT: 7.35
